System: Homo sapiens (human subject panel, olfactory perception)
testDetails: perceived odor intensity rating (rating 0-100); higher = stronger perceived smell
conditionSummary: odor dilution in paraffin oil: 1/1,000
observedProperty: perceived odor intensity rating
Give the figure only, with no unit attached.

So for CC(O)c1ccccc1 (centres undefined) , the logged perceived odor intensity rating turned out to be 48.4

So for OCCCCCc1ccccc1 , the logged perceived odor intensity rating turned out to be 53.4

So for CCOC(C)=O [ethyl acetate] , the logged perceived odor intensity rating turned out to be 40.3

So for COC(=O)c1cccnc1 [Methyl nicotinate] , the logged perceived odor intensity rating turned out to be 63

***
So for CCCCCCCCCCCCCC(=O)OC(C)C [Isopropyl myristate] , the logged perceived odor intensity rating turned out to be 20.3

So for CC(C)c1ccc(C=O)cc1 , the logged perceived odor intensity rating turned out to be 59.1

So for CCC(=O)OCCCc1ccccc1 [3-Phenylpropyl propionate] , the logged perceived odor intensity rating turned out to be 62.9

So for CCCC(=O)O , the logged perceived odor intensity rating turned out to be 86.8

So for C=CCc1ccc(OC(C)=O)c(OC)c1 [Eugenyl Acetate] , the logged perceived odor intensity rating turned out to be 52.3

So for OCc1ccccc1 , the logged perceived odor intensity rating turned out to be 45.4

So for CC(=O)OC1CC(C)CCC1C(C)C [L-Menthyl acetate (replicate)] , the logged perceived odor intensity rating turned out to be 34.3

So for CCCCCCCCCCCC(=O)O [Lauric acid] , the logged perceived odor intensity rating turned out to be 25.3

So for CC(C)CCO , the logged perceived odor intensity rating turned out to be 63.5

So for CC(C)=CCCC(C)CCO (single isomer, unassigned; (-)) [(-)-citronellol] , the logged perceived odor intensity rating turned out to be 71.5

So for CC(=O)/C=C/C1=C(C)CCCC1(C)C , the logged perceived odor intensity rating turned out to be 69.7

So for C=CC(C)(CCC=C(C)C)OC(C)=O (centres undefined) [Linalyl acetate] , the logged perceived odor intensity rating turned out to be 29.8

So for COC(=O)c1ccccc1OC [Methyl 2-methoxybenzoate] , the logged perceived odor intensity rating turned out to be 47.5

So for OCC1CCCO1 (centres undefined) [Tetrahydrofurfuryl alcohol] , the logged perceived odor intensity rating turned out to be 29.6

So for COc1cccc(C=O)c1 , the logged perceived odor intensity rating turned out to be 48.7

###

Test system: Homo sapiens (human subject panel, olfactory perception)
testDetails: perceived odor intensity rating (rating 0-100); higher = stronger perceived smell
conditionSummary: odor dilution in paraffin oil: 1/1,000
observedProperty: perceived odor intensity rating
Give the figure only, with no unit attached.

Please review the following examples before continuing.
So for CCCC(=O)OC [Methyl butyrate] , the logged perceived odor intensity rating turned out to be 79.2

So for CCCCCCOC(=O)CC [Hexyl propionate] , the logged perceived odor intensity rating turned out to be 59

***
So for NCCCC[C@H](N)C(=O)O , the logged perceived odor intensity rating turned out to be 59.1

###

Test system: Homo sapiens (human subject panel, olfactory perception)
testDetails: perceived odor intensity rating (rating 0-100); higher = stronger perceived smell
conditionSummary: odor dilution in paraffin oil: 1/10
observedProperty: perceived odor intensity rating
Give the figure only, with no unit attached.

Please review the following examples before continuing.
// perceived odor intensity rating (Homo sapiens (human subject panel, olfactory perception)) for CC1CC[C@H](C(C)C)[C@@H](O)C1 (some centres not stated) [( + )-menthol] = 83.4

// perceived odor intensity rating (Homo sapiens (human subject panel, olfactory perception)) for COc1ccc(C(C)=O)cc1OC [3,4-Dimethoxyacetophenone] = 61.7

// perceived odor intensity rating (Homo sapiens (human subject panel, olfactory perception)) for CCCCCCCCCCCC(=O)O [Lauric acid (replicate)] = 72.2

***
// perceived odor intensity rating (Homo sapiens (human subject panel, olfactory perception)) for CC(=O)OCC(COC(C)=O)OC(C)=O [Triacetin] = 57.8

// perceived odor intensity rating (Homo sapiens (human subject panel, olfactory perception)) for CCCCCCCCCCCCCC(=O)OC(C)C [Isopropyl myristate] = 26

// perceived odor intensity rating (Homo sapiens (human subject panel, olfactory perception)) for CC(C)C[C@H](N)C(=O)O [L-Leucine] = 70.9

// perceived odor intensity rating (Homo sapiens (human subject panel, olfactory perception)) for N[C@@H](Cc1ccccc1)C(=O)O [L-Phenylalanine] = 34.4

// perceived odor intensity rating (Homo sapiens (human subject panel, olfactory perception)) for CC=Cc1ccc(OC(C)=O)c(OC)c1 [isoeugenol acetate] = 57.6

// perceived odor intensity rating (Homo sapiens (human subject panel, olfactory perception)) for CC(C)c1ccc(CO)cc1 [4-Isopropylbenzyl alcohol] = 71.6

// perceived odor intensity rating (Homo sapiens (human subject panel, olfactory perception)) for COc1cc(C=O)ccc1O [vanillin] = 72.1

// perceived odor intensity rating (Homo sapiens (human subject panel, olfactory perception)) for O=C(O)CCC(=O)O [Succinic acid] = 46.2

// perceived odor intensity rating (Homo sapiens (human subject panel, olfactory perception)) for NCCC(=O)O [beta-Alanine] = 38.4

// perceived odor intensity rating (Homo sapiens (human subject panel, olfactory perception)) for C1CCCCC1 [Cyclohexane] = 57.4

// perceived odor intensity rating (Homo sapiens (human subject panel, olfactory perception)) for CCCCCCCCCCCC(=O)O [Lauric acid] = 71.6

// perceived odor intensity rating (Homo sapiens (human subject panel, olfactory perception)) for COc1ccccc1OC(=O)Cc1ccccc1 [Guaiacyl phenylacetate] = 71.5

###

System: Homo sapiens (human subject panel, olfactory perception)
testDetails: perceived odor intensity rating (rating 0-100); higher = stronger perceived smell
conditionSummary: odor dilution in paraffin oil: 1/1,000
perceived odor intensity rating for assorted molecules
Give the figure only, with no unit attached.

Please review the following examples before continuing.
// perceived odor intensity rating (Homo sapiens (human subject panel, olfactory perception)) for OCCc1ccccc1 [2-phenylethanol] = 70

// perceived odor intensity rating (Homo sapiens (human subject panel, olfactory perception)) for COC(OC)c1ccccc1 [Benzaldehyde dimethyl acetal] = 68.6

// perceived odor intensity rating (Homo sapiens (human subject panel, olfactory perception)) for CCCCCCC1CCC(=O)O1 (centres undefined) [gamma-decalactone] = 54

***
// perceived odor intensity rating (Homo sapiens (human subject panel, olfactory perception)) for CCc1ccccc1 [ethylbenzene] = 75.5

// perceived odor intensity rating (Homo sapiens (human subject panel, olfactory perception)) for CCCCCCC(C)=O [2-octanone] = 66.8

// perceived odor intensity rating (Homo sapiens (human subject panel, olfactory perception)) for CC(C)=CCC/C(C)=C\CO [Nerol] = 71.1

// perceived odor intensity rating (Homo sapiens (human subject panel, olfactory perception)) for C/C=C\c1ccc(O)c(OC)c1 [Isoeugenol] = 81.6

// perceived odor intensity rating (Homo sapiens (human subject panel, olfactory perception)) for O=C(O)CCC(=O)O [Succinic acid] = 32.3

// perceived odor intensity rating (Homo sapiens (human subject panel, olfactory perception)) for CCCCCOC(=O)CCC [Amyl butyrate] = 59.2

// perceived odor intensity rating (Homo sapiens (human subject panel, olfactory perception)) for CCOc1nccs1 [2-Ethoxythiazole] = 79.9

// perceived odor intensity rating (Homo sapiens (human subject panel, olfactory perception)) for CC(=O)c1ccccc1 [acetophenone] = 81.5

// perceived odor intensity rating (Homo sapiens (human subject panel, olfactory perception)) for CCCC(C)O (centres undefined) [2-pentanol] = 50.2

// perceived odor intensity rating (Homo sapiens (human subject panel, olfactory perception)) for O=Cc1ccc2c(c1)OCO2 [piperonal] = 42.5

// perceived odor intensity rating (Homo sapiens (human subject panel, olfactory perception)) for O=C(/C=C/C=C/c1ccc2c(c1)OCO2)N1CCCCC1 [Piperine] = 19.4

###

System: Homo sapiens (human subject panel, olfactory perception)
testDetails: perceived odor intensity rating (rating 0-100); higher = stronger perceived smell
conditionSummary: odor dilution in paraffin oil: 1/1,000
Counter-ions that a name gives are not always drawn.
perceived odor intensity rating for assorted molecules
Give the figure only, with no unit attached.

Please review the following examples before continuing.
So for CCOC(=O)CC(O)(CC(=O)OCC)C(=O)OCC [Triethyl citrate] , the logged perceived odor intensity rating turned out to be 20.4

So for C/C=C/C=C/COC(C)=O [trans,trans-2,4-Hexadienyl acetate (replicate)] , the logged perceived odor intensity rating turned out to be 23.5

Proceeding to the next molecule to report its perceived odor intensity rating.
So for CC(=O)OCCC(C)C [isopentyl acetate] , the logged perceived odor intensity rating turned out to be 58.3

###

Test system: Homo sapiens (human subject panel, olfactory perception)
testDetails: perceived odor intensity rating (rating 0-100); higher = stronger perceived smell
conditionSummary: odor dilution in paraffin oil: 1/1,000
Values of perceived odor intensity rating greater than or equal to 60 map to 1; values below map to 0.

Example results:
Q: Tell me whether perceived odor intensity rating is at least 60 here: O=C(Cc1ccccc1)OCc1ccccc1 [Benzyl phenylacetate]
Ans: 0

Q: Tell me whether perceived odor intensity rating is at least 60 here: C=C(C)C(=O)OC [Methyl methacrylate]
Ans: 0

Q: Tell me whether perceived odor intensity rating is at least 60 here: CCCO
Ans: 0

***
Q: Tell me whether perceived odor intensity rating is at least 60 here: CCC(=O)OCc1ccccc1 [Benzyl propionate]
Ans: 0

Q: Tell me whether perceived odor intensity rating is at least 60 here: c1ccc(Oc2ccccc2)cc1
Ans: 0

Q: Tell me whether perceived odor intensity rating is at least 60 here: O=Cc1ccccc1
Ans: 1

Entry source: the supplement of paper PMC4977894
